biological target: HLA-A2 (heavy chain with β2-microglobulin) (human | ); test: radioligand binding; competitive peptide binding assay: test peptide (100,000-fold concentration range, triplicate) displaces a radiolabeled peptide from HLA-A2 (refolded with […]); MHC-peptide complexes captured on plates coated with antibody W6/32; IC50 taken as a reasonable approximation of the dissociation constant; conditions: both partners purified
Square brackets hold non-standard residues; d marks the D form. Ends that are not written are not given here. pS = N[C@@H](COP(=O)(O)O)C(=O)O
measurement.name: Kd (nM)
Give bare numbers, in nM.

Suppose we examine the binder RQI[pS]QDVKL (stretch of adenosine monophosphate deaminase 2 (AMPD2); source: synthetic peptide) [RQIp, phosphopeptide RQIpSQDVKL derived from adenosine monophosphate deaminase 2 (AMPD2)] ; what Kd value has been reported?
25.5
